- Read-out: Bcl-2 (BAX) gene, BAX (gene 581)
- method: LTEA_HepaRG_BAX: Life Technologies and Expression Analysis (LTEA) Assay for Bcl-2 (BAX) gene using HepaRG (AID 2283470)
- condition.summary: mRNA level, 48 h; actives raise or lower the signal
Active and inactive are the calls of the source. Rule for the calls: active = hit-call score of the fitted dose curve at least 0.9, where 1 is the maximum; inactive = score below 0.9.
Please reply with one of these outcomes: active, inactive

Fill in: this test's call for `COc1ccc(S(=O)(=O)N2C(=O)[C@@](c3ccccc3OC)(N3C[C@H](O)C[C@H]3C(=O)N(C)C)c3cc(Cl)ccc32)c(OC)c1` is ___
active

Query: recorded result category for `Oc1ccc2ccccc2c1N=Nc1ccccc1` in this test
inactive

Any idea what this test logged for `COCCOCCOC` ?
inactive

Could you check what this test reported for `Nc1nc(N)c2nc(CNc3ccc(C(=O)N[C@@H](CCC(=O)O)C(=O)O)cc3)cnc2n1` ?
inactive

GET /call?item= `O=C(N[C@@H](Cc1ccccc1)[C@@H](O)C(=O)N1C[C@@H](O)[C@@H](O)C1)c1cc2cc(Cl)ccc2[nH]1` returns the recorded outcome of this test.
inactive

Record request — test call for CC(=O)C(C)=CC1C(C)=CCCC1(C)C (configuration not stated)
inactive

Name the outcome recorded for `CCCCOC(=O)CCCCCCCCC(=O)OCCCC` in the assay.
inactive

Could you kindly confirm the outcome this assay logged for `Cc1ccc(C)c(C)c1` ?
inactive

Tell me the assay call for `Cc1oc(-c2ccccc2)nc1CCOc1cccc2c1ccn2CCC(=O)O` please.
active

// return assay outcome for `Clc1cc(Cl)c(Cl)cc1Cl`
inactive

# outcome recorded in this test, key = `Cc1cccc(Nc2cc(Cl)nc(SCC(=O)O)n2)c1C`
inactive

I'd appreciate the recorded outcome for `Cc1ccc2ncccc2c1` from this test.
inactive

----------
- method: APR_HepG2_MitoticArrest_72hr: Apredica 72-hour HepG2 Assay for Mitotic Arrest (AID 2282918)
- condition.summary: high-content imaging, actives raise or lower the signal
Activity calls are given as the source filed them. Rule for the calls: active = hit-call score of the fitted dose curve at least 0.9, where 1 is the maximum; inactive = score below 0.9.
Your response should consist of one outcome taken from active, inactive

Give the logged outcome of this assay for the following compound: `CCOC(=O)CCC(=O)OCC`
inactive

Which outcome was assigned to `CCCCCCC(=O)OCC` in this test?
inactive

Can you look up the reported call for `O=c1[nH]cc(F)c(=O)[nH]1` for me?
inactive

Which outcome did this test record for the compound `c1cc(-c2ccncc2)ccn1` ?
inactive

What did the test return for `COc1cccc2c1C(=O)c1c(O)c3c(c(O)c1C2=O)C[C@@](O)(C(=O)CO)C[C@@H]3O[C@H]1C[C@H](N)[C@H](O)[C@H](C)O1` ?
active

Recorded call for `C=CCOC(=O)c1ccccc1C(=O)OCC=C` ?
inactive

Could you please tell me the result logged for `O=C(O)Cc1ccccc1Nc1c(Cl)cccc1Cl` in this assay?
inactive

Would you mind telling me which call this test gave `Cc1ccc(C)c(O)c1C` ?
active

# fetch the recorded call for `CC=Cc1ccc(O)c(OC)c1` here
inactive

For `Cc1ccc(Cl)cc1` , what call appears in the results of this test?
inactive

Hi, sorry to bother you, what did the test record for `CCCCc1ccc2c(n1)[C@@H](c1ccc(OC)cc1C[C@H](C)C(=O)O)[C@H](C(=O)O)[C@H]2c1ccc2c(c1)OCO2` ?
inactive

For `NCCO` , which call appears in the assay record?
inactive

So what was the verdict on `Cc1oc(-c2ccccc2)nc1CCOc1cccc2c1ccn2CCC(=O)O` in this test?
inactive

Record lookup: outcome of this test for `Cc1cccc(C)c1O` ?
inactive

Called result for `CCCCN(CCCC)CCCC`
inactive

Call for entry `O=C(N[C@@H](Cc1ccccc1)[C@@H](O)C(=O)N1C[C@@H](O)[C@@H](O)C1)c1cc2cc(Cl)ccc2[nH]1` :
active

Answer briefly: the call reported for CC(CO)OC(C)CO (stereo unspecified) (tested in a mixture with another compound) in this assay.
inactive

# outcome recorded in this test, key = `NS(=O)(=O)c1cc2c(cc1Cl)NCNS2(=O)=O`
inactive

Check the results log: what was the call for `Nc1ccc2c(c1)C(=O)c1ccccc1C2=O` ?
active

Please share the test call associated with `COc1ccc(C)cc1N` .
inactive

# lookup: test call for `NCC1(Cc2noc(=O)[nH]2)CCCCC1`
inactive

Query: recorded result category for `Cc1nc(C)nc(N2C[C@@H](C)N(c3ccnc([C@@H](C)O)n3)[C@@H](C)C2)n1` in this test
inactive

Kindly provide the recorded test outcome for the following compound: `CCc1c(C(=O)NN2CCCCC2)nn(-c2ccc(Cl)cc2Cl)c1-c1ccc(Br)cc1`
active

What is the recorded call for this compound in the test? `CNC(=O)[C@H]1O[C@@H](n2cnc3c(NCc4cc(Cl)ccc4OCc4cc(C)no4)ncnc32)[C@H](O)[C@@H]1N`
inactive

Per the assay record, what outcome was assigned to `COCCOCCOC` ?
inactive

Answer briefly: the call reported for `Cc1ccc2ncccc2c1` in this assay.
inactive

----------
- target: human Protein Tyrosine Phosphatase Non-receptor Type 9 (PTPN9), PTPN9 (gene 5780) (UniProt P43378)
- Sequence (P43378 whole entry, looked up): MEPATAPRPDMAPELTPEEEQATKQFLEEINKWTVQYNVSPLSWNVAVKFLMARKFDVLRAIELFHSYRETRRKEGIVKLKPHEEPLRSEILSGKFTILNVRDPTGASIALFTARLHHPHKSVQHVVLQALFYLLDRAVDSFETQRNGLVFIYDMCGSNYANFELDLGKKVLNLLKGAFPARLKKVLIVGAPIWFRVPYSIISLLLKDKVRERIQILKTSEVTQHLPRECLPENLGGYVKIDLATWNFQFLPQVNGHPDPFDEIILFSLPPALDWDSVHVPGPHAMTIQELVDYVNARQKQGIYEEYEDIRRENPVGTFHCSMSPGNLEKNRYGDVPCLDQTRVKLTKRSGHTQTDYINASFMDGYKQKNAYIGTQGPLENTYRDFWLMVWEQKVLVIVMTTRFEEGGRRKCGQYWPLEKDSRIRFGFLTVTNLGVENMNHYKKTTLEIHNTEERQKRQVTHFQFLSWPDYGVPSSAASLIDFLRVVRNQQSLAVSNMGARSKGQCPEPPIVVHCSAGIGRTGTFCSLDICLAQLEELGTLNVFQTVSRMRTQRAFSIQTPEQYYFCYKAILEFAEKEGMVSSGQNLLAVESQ
- method: NVS_ENZ_hPTPN9: NovaScreen (NVS) Enzymatic Assay for human Protein Tyrosine Phosphatase Non-receptor Type 9 (PTPN9) (AID 2283209)
Records with an inconclusive call do not appear. Calls of active or inactive are those of the source. The calls were made as follows: active = hit-call score of the fitted dose curve at least 0.9, where 1 is the maximum; inconclusive = response in the unintended direction; inactive = score below 0.9.
Pick one: active, inactive

Short answer needed: outcome of this test for `O=C(O)CCCCC(=O)O` ?
inactive

Outcome logged for `CCc1c(C(=O)NN2CCCCC2)nn(-c2ccc(Cl)cc2Cl)c1-c1ccc(Br)cc1` in this assay:
inactive

Just curious, what result did `Nc1ccccc1N` get here?
active

Recorded test outcome, item `Cc1ccc2ncccc2c1`
inactive

Could you check what this test reported for `O=C(OCCCCCOC(=O)c1ccccc1)c1ccccc1` ?
inactive

Assay result, entry `O=[N+]([O-])C(CO)(CO)CO` — outcome?
active

Could you kindly confirm the outcome this assay logged for `Oc1ccc2ccccc2c1N=Nc1ccccc1` ?
active

----------
- Read-out: solute carrier (SLC22A1), SLC22A1 (gene 6580)
- method: LTEA_HepaRG_SLC22A1: Life Technologies and Expression Analysis (LTEA) Assay for solute carrier (SLC22A1) using HepaRG (AID 2283524)
- condition.summary: mRNA level, 48 h; actives raise or lower the signal
The source made the active and inactive calls. Rule for the calls: active = hit-call score of the fitted dose curve at least 0.9, where 1 is the maximum; inactive = score below 0.9.
Could you please pick one outcome from this set? active, inactive

Dear colleague, could you share the recorded outcome for `CN1CCCC1=O` when you have a moment?
inactive

Hi, do you know how `Cc1cc(=O)[nH]c(=S)[nH]1` came out in this test?
inactive

Entry `CCCCc1ccc2c(n1)[C@@H](c1ccc(OC)cc1C[C@H](C)C(=O)O)[C@H](C(=O)O)[C@H]2c1ccc2c(c1)OCO2` : call = ?
inactive

What was the test verdict on `CCCc1cc(=O)[nH]c(=S)[nH]1` ?
inactive

// return assay outcome for `C[C@]12C=CC(=O)C=C1CC[C@@H]1[C@@H]2C(=O)C[C@@]2(C)[C@H]1CC[C@]2(O)C(=O)CO`
inactive

Write down the call the test reported for this molecule. Item: `Cc1ccccc1Cl`
inactive

Check the results log: what was the call for `Cc1oc(-c2ccccc2)nc1CCOc1cccc2c1ccn2CCC(=O)O` ?
active

What did this assay record as the result for `CC1=C(/C=C/C(C)=C/C=C/C(C)=C/CO)C(C)(C)CCC1` ?
active

Per the records of this test, what outcome belongs to `Cc1c(C(=O)O)c(O)cc2c1C(=O)c1c(O)c([C@@H]3O[C@H](CO)[C@@H](O)[C@H](O)[C@H]3O)c(O)c(O)c1C2=O` ?
inactive

Which result was noted for this molecule in the test: Cc1nc(-c2ccc3c(c2)CCN(CCC2CCC(NC(=O)/C=C/c4ccc(F)cc4)CC2)CC3)no1 (stereo not drawn)
inactive

Please indicate how the test categorized `CCCCCCCCCCCCCO` .
inactive

What did this assay record as the result for `Nc1ccc2c(c1)C(=O)c1ccccc1C2=O` ?
active

// outcome(item) with item = `CC=Cc1ccc(O)c(OC)c1`
inactive

Please share the test call associated with `CCCCCC(=O)O` .
inactive

What did the test return for `O=[N+]([O-])C(CO)(CO)CO` ?
inactive

Test call for this molecule, please: `C=CCc1ccc(O)c(OC)c1`
inactive

Just curious, what result did `CC(C)(C)c1cc(O)c(C(C)(C)C)cc1O` get here?
active

Which outcome was entered for the molecule `Cc1cccc([N+](=O)[O-])c1C` in this test?
inactive

Could you kindly confirm the outcome this assay logged for `CCCCCCCCCCCCCCCCCC(=O)O` ?
inactive

# outcome recorded in this test, key = `C=CCOC(=O)c1ccccc1C(=O)OCC=C`
inactive

Just curious, what result did `Cc1cccc(C)c1O` get here?
inactive

What classification did `COc1cc(-c2nc(NC(=O)c3cc4cc(C)cc(C)c4n3CC(=O)O)sc2CCC2CCCCC2)c(OC)cc1Cl` end up with in this test?
active

Hi team, can someone confirm the assay call for `Cc1cccc(Nc2cc(Cl)nc(SCC(=O)O)n2)c1C` ?
inactive
